compounds and their reported Fluorescence Intensity (mean fluorescence intensity per cell)
# System: neonatal human epidermal keratinocytes (HEKn)
# testName: Transfection of HEKn with GFP-encoding RNA complexed with lipid, mean fluorescence intensity per cell (Table 1)
# Assay type: cell-based
# testSettings: 20,000 HEKn per well, 24-well plate; 100 ng in vitro transcribed GFP RNA; 24 hours after transfection
Please provide the amount together with its unit, number first.

Below, 2 compounds whose answers are already recorded.
CCCCC/C=C\C/C=C\CCCCCCCCN(CCCCCCCCCCCCN(CCCCCCCC/C=C\C/C=C\CCCCC)CC(O)CN)CC(O)CN (stereo not drawn); 5631 a.u.
CCCCC/C=C\C/C=C\CCCCCCCCN(CCCCN(CCCCCCCC/C=C\C/C=C\CCCCC)CC(O)CN)CC(O)CN (stereo not drawn); 8009 a.u.

Now turn to the next compound.
# query: Fluorescence Intensity (mean fluorescence intensity per cell) | item CCCCC/C=C\C/C=C\CCCCCCCCN(CCCCCCCCN(CCCCCCCC/C=C\C/C=C\CCCCC)CC(O)CN)CC(O)CN (stereo not drawn) | system: neonatal human epidermal keratinocytes (HEKn)
9170 a.u.
